measuredOn: monoacylglycerol lipase (MAGL) (Homo sapiens, UniProt Q99685)
Construct: gene MGLL
Sequence (Q99685 1-303): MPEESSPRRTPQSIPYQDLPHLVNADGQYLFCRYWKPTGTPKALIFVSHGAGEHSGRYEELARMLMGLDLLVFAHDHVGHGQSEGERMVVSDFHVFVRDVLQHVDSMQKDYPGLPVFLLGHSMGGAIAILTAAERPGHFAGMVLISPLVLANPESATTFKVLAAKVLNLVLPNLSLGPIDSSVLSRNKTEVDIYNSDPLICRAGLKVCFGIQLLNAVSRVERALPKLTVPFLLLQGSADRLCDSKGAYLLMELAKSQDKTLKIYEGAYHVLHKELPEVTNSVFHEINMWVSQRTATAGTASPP
testDescription: enzymatic inhibition assay with human MAGL protein
Type: biochemical
resultType: pIC50
// pIC50 is dimensionless: -log10 of concentration (M)

Given Cc1cccc(-c2ccc(N3C[C@H](N4CCN(C(=O)c5ccco5)CC4)CC3=O)cc2)c1 [(R)-YH168] , state its recorded pIC50.
8.40

Taken from paper PMC11839854.
